Test system: XIP peptide (Xip251-270)
Assay: compounds binding XIP fragment 251-270 – biochemical, small-molecule microarray, fluorescence 635/667 nm, 0.5 µg/mL protein, primary screen (AID 1183)
Conditions: fluorescence 635 nm, higher = more signal
Here the recorded composite z-score is given for each entry.
Form rule: numeric answer, no unit written next to it.

The examples below pair each entry with its known result.
compound=COC(=O)[C@@]1(Cc2ccc(F)cc2)[C@H]2c3cc(C(=O)N(C)C)n(Cc4ccccn4)c3C[C@H]2CN1C(=O)c1ccccc1 reported_metric="composite z-score" observed_measurement=0.352
compound=CCCNC(=O)[C@@]1(C)c2ccccc2C(=O)N(Cc2ccc(OC(F)(F)F)cc2)[C@H]1c1ccc(CO)cc1 reported_metric="composite z-score" observed_measurement=0.794
compound="CCOC(=O)N1C(c2ccc(OCCCO)cc2)=NC(C(=O)OC)N1C(=O)OCC (centres undefined)" reported_metric="composite z-score" observed_measurement=0.735

Lab note: next compound to report on.
For this compound ( O=C1C2C=CC(C(O)c3ccccn3)N(Nc3ccccc3F)C2C(=O)N1c1ccccc1 (centres undefined) ), measured composite z-score is 0.796

---

Here the recorded composite z-score is given for each entry.
Test system: Neuregulin-1 EGF-like domain
Experiment: small molecules binding NRG1 EGF domain – biochemical, small-molecule microarray, 635 nm fluorescence, primary screen (AID 1081);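 also: binding of the protein to compounds printed on small-molecule microarray slides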
Conditions: higher = more signal
Form rule: numeric answer, no unit written next to it.

The examples below pair each entry with its known result.
molecule=C=C(CCCC)/C(=C/C[C@H](OC(C)=O)c1ccc(CO)o1)c1cc(C(=O)OC)ccc1OC tested_target="Neuregulin-1 EGF-like domain" reported_metric="composite z-score" observed_measurement=0.888
molecule=C=C(CCCC)C(=O)CC[C@H](OC(=O)c1ccccc1-c1ccccc1C(=O)O)c1ccc(CO)o1 tested_target="Neuregulin-1 EGF-like domain" reported_metric="composite z-score" observed_measurement=1.25
molecule="CC1CC/C=C\\[C@H]2OC34C=CCN(c5ccc6ccccc6c5)C(=O)[C@H]3N(CCCCCO)C(=O)[C@@H]4C2C(=O)O1 (some centres undefined)" tested_target="Neuregulin-1 EGF-like domain" reported_metric="composite z-score" observed_measurement=-0.734
molecule=C=CCN1C(=O)[C@]2(COC(c3ccc(OCCCO)cc3)=N2)Cc2ccccc21 tested_target="Neuregulin-1 EGF-like domain" reported_metric="composite z-score" observed_measurement=1.08

For this molecule ( C=C[C@H](C)[C@H](O)c1ccc(OCCO)cc1 ), measured composite z-score is -0.694

For this molecule ( O=C1C[C@@](C(=O)O)(c2ccc([N+](=O)[O-])cc2)[C@@H](c2ccc(CO)cc2I)N1C1CCCCC1 ), measured composite z-score is 0.94

For this molecule ( O=C1c2ccccc2[C@@]2(Cc3ccccc3N(Cc3ccccc3)C2=O)[C@H](c2ccc(CO)cc2)N1Cc1ccccc1C(F)(F)F ), measured composite z-score is 0.114

For this molecule ( C=C[C@H](C)[C@H](OC(=O)Nc1ccc(OC)cc1)c1ccc(O)c2ccccc12 ), measured composite z-score is 0.957

For this molecule ( C=CCN1C(=O)[C@@]2(O[C@@H](CCO)[C@H]([Si](C)(C)c3ccc(OC)cc3)[C@H]2C)c2cc(N3C(=O)COc4ccccc43)ccc21 ), measured composite z-score is 0.746

---

Experiment: small molecules captured by biotinylated probe aFGF2 – biochemical, small-molecule microarray, fluorescence 635/667, stem cell growth factor project, primary screen (AID 1067);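 also: measures binding of biotinylated aFGF2 protein to printed compounds on slides; z-score merges feature fluorescence and signal-to-noise across triplicate slides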
Conditions: higher = more signal
reported.metric: composite z-score

The examples below pair each entry with its known result.
compound="O=C1C2C=CC(C(O)CCc3ccccc3)N(Nc3ccccc3)C2C(=O)N1c1ccccc1 (configuration not stated)" reported_metric="composite z-score" observed_measurement=0.288
compound=C=C(CCCC)/C(=C/C[C@@H](OC(=O)c1ccncc1)c1ccc(CO)o1)c1cc(C(=O)OC)ccc1OC reported_metric="composite z-score" observed_measurement=-0.0887
compound="[N-]=[N+]=NCc1ccccc1[C@H]1OC(c2ccc(OCCCO)cc2)=N[C@@]1(Cc1ccccc1)C(=O)NCC(O)CO (some centres not stated)" reported_metric="composite z-score" observed_measurement=-0.127

For this compound ( C=C(CCCC)C(=O)CC[C@@H](OC(=O)c1ccccc1-c1ccccc1C(=O)O)c1ccc(CO)o1 ), measured composite z-score is -0.0291

For this compound ( CCCNC(=O)[C@@]1(C)c2ccccc2C(=O)N(Cc2cc(C(F)(F)F)cc(C(F)(F)F)c2)[C@H]1c1ccc(CO)cc1 ), measured composite z-score is -0.0653

For this compound ( Cc1cc(C)c(C(O)C2C=CC3C(=O)NC(=O)C3N2Nc2ccccn2)c(C)c1 (configuration not stated) ), measured composite z-score is -0.0878

For this compound ( CCCNC(=O)[C@@]1(C)c2ccccc2C(=O)N(Cc2cc(F)cc(C(F)(F)F)c2)[C@H]1c1ccc(CO)cc1 ), measured composite z-score is -0.0901

---

Test: compound effects on differentiated 3T3-L1 adipocyte viability – cell-based, 3T3-L1 adipocytes, calcein-AM fluorescence, 48 h, basal, profiling panel (AID 1163)
Settings: 3T3-L1 adipocytes viability, higher = more signal
reported.metric: z-score

The examples below pair each entry with its known result.
compound=COC(=O)[C@@]1(Cc2ccc(OC)cc2)[C@H]2c3cc(C(=O)N4CCCC4)n(CCc4ccccn4)c3C[C@H]2CN1C(=O)c1ccccc1 observed_measurement=1.13
compound="CN1C(=O)C2C=CC(C(O)c3ccccc3)N(NC(=O)OC(C)(C)C)C2C1=O (centres undefined)" observed_measurement=0.103
compound="COc1ccc(C(O)C2C=CC3C(=O)N(c4ccccc4)C(=O)C3N2Nc2ccccc2)c2ccccc12 (centres undefined)" observed_measurement=-2.02
compound=C[N+](C)(C)CCCC[C@@H]1NC(=O)[C@@H]2C[C@H](C(=O)NCCCCCCNC(=O)CS)[C@H](c3cccc(OCCO)c3)N2C1=O observed_measurement=-0.0406
compound="O=C1OCC=C[C@H]2OC34C=CCN(c5ccc6ccccc6c5)C(=O)[C@H]3N(CCO)C(=O)[C@@H]4[C@@H]12 (some centres undefined)" observed_measurement=-0.355
compound=Cc1ccc([C@H]2C(C(=O)O)=C[C@@H](C(C)C)N2S(=O)(=O)c2ccc(C)cc2)cc1 observed_measurement=-0.762
compound=COc1ccc(C#Cc2ccc3c(c2)[C@]2(C(=O)N3)[C@H](c3ccc(OCCO)cc3)N3[C@H](c4ccccc4)[C@H](c4ccccc4)OC(=O)[C@H]3[C@@H]2C(=O)Nc2nc3ccccc3s2)cc1 observed_measurement=0.292
compound=COc1ccccc1CN1C(=O)c2ccccc2[C@](Cc2ccccc2I)(C(=O)NC2CC2)[C@@H]1c1ccc(CO)cc1 observed_measurement=-0.475

For this compound ( CCCCCCC#C[Si](O[C@H](c1ccccc1)c1cn([C@H](C)c2ccccc2)nn1)(C(C)C)C(C)C ), measured z-score is -1.2

For this compound ( CN(C)CCCC[C@@H]1NC(=O)[C@H]2C[C@@H](C(=O)NCCCCCNC(=O)CS)[C@@H](c3ccc(O)cc3)N2C1=O ), measured z-score is -0.478

For this compound ( C=CCC(OC(C)=O)[C@@H]1[C@@H](N(Cc2cc3ccccc3o2)C(=O)c2ccc(C)cc2)c2cc(OCCCO)ccc2N1C(=O)c1ccc(-c2ccccc2)cc1 (some centres undefined) ), measured z-score is 1.34

---

Experiment: blood-stage malaria parasite viability loss – strain 3D7, DAPI fluorescence, 100 nL, primary screen (AID 1184);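 also: parasites grown inside human red blood cells in medium with human serum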
Details: P. falciparum 3D7 growth, 3 d, higher = more signal
Criterion: z-score meeting or surpassing -0.2. Met: true. Not met: false.

Solved cases (5 shown):
compound=C=C(CCCC)C(=O)CC[C@H](OC(C)=O)c1ccc(CO)o1 class_name=false
compound=CCCC[C@H]1OB(O)C[C@H]2C1=C(COc1ccccc1)C[C@H]1C(=O)N(Cc3ccccc3)C(=O)[C@H]12 class_name=true
compound="O=C(NCC(O)CO)[C@@]1(Cc2ccccc2)N=C(c2ccc(OCCCO)cc2)O[C@H]1c1ccccc1 (stereo not given in full)" class_name=false
compound="CN1C(=O)C2C=CC(C(O)C(c3ccccc3)c3ccccc3)N(Nc3ccccc3)C2C1=O (stereo not given)" class_name=true
compound="Cc1cc(C)c(C(O)C2C=CC3C(=O)NC(=O)C3N2Nc2ccccn2)c(C)c1 (stereo not given)" class_name=false

hey, is z-score for this one >= -0.2? O=C1O[C@@H](c2ccccc2)[C@@H](c2ccccc2)N2[C@@H](c3ccc(O)cc3)[C@]3(C(=O)Nc4ccc(C#CCCO)cc43)[C@@H](C(=O)N3CCCCCCC3)[C@H]12
false

hey, is z-score for this one >= -0.2? COCCOC(=O)N1C(=O)[C@@]2(c3cc(C#CCC(C(=O)OC)C(=O)OC)ccc31)[C@H](c1ccccc1OCCO)N1[C@H](c3ccccc3)[C@H](c3ccccc3)OC(=O)[C@H]1[C@@H]2C(=O)Nc1nc2ccccc2s1
false

hey, is z-score for this one >= -0.2? CCN(CC)c1ccc(N2CC=CC34O[C@@H]5C=CCCOC(=O)C5[C@H]3C(=O)N(CCCO)[C@@H]4C2=O)cc1 (stereo not given in full)
false

hey, is z-score for this one >= -0.2? C=C(COC)C(=O)CC[C@H](OC(=O)c1cccnc1)c1ccccc1OCCO
false

hey, is z-score for this one >= -0.2? CC(C)N1C(=O)c2ccccc2[C@](C)(C(=O)NCCCN(C)C)[C@@H]1c1ccc(CO)cc1
true

hey, is z-score for this one >= -0.2? COc1ccc([Si](C)(C)[C@@H]2[C@@H](CCO)O[C@]3(C(=O)N(Cc4ccccc4)c4ccc(N(C=O)c5ccccc5)cc43)[C@H]2C)cc1
false

hey, is z-score for this one >= -0.2? COc1ccc([Si](C)(C)[C@@H]2[C@@H](CCO)O[C@]3(C(=O)N(Cc4cccc(N(C=O)c5ccccc5)c4)c4ccccc43)[C@H]2C)cc1
false

hey, is z-score for this one >= -0.2? CCCC[C@H]1OB(O)C[C@H]2C1=C(C)Cn1c(=O)n(-c3ccccc3)c(=O)n12
false
